- tgt: rat liver dihydrofolate reductase (Rattus norvegicus, UniProt Q920D2)
- Construct: dihydrofolate reductase (DHFR) from rat liver; from tissue; host or cells: rat liver
- Sequence (Q920D2 whole entry): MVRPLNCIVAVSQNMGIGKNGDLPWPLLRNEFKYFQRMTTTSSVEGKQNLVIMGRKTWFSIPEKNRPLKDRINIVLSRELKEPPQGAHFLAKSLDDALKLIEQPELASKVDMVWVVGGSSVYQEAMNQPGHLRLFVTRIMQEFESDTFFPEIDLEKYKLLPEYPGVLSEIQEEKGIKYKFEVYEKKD
- test: Dihydrofolate reductase inhibition, rat liver DHFR
- Format: biochemical
- condition.parameters: expt 1 (replicate assays on different days); read-out: DHFR inhibition (IC50 μM) rat liver

# molecule, tgt, u, IC50
data = [
    ("Nc1nc(N)c2nc(CN3c4ccccc4C=Cc4ccccc43)cnc2n1 [Example 7]", "rat liver dihydrofolate reductase (Rattus norvegicus, UniProt Q920D2)", "µM", 2.1),
]

====

- tgt: rat liver dihydrofolate reductase (Rattus norvegicus)
- Construct: dihydrofolate reductase (DHFR) from rat liver; from tissue; host or cells: rat liver
- test: Dihydrofolate reductase inhibition, rat liver DHFR
- Assay type: biochemical
- condition.parameters: expt 3 (replicate assays on different days); read-out: DHFR inhibition (IC50 μM) rat liver
readout: IC50 (µM)

# structure.smiles.string, tgt, readout, value.observed
data = [
    ("Nc1nc(N)c2nc(CN3c4ccccc4C=Cc4ccccc43)cnc2n1", "rat liver dihydrofolate reductase (Rattus norvegicus)", "IC50", 4.4),
]

Source of measurements: patent US7056911B1
